- system_under_test: GABARAP, O95166
- Sequence (O95166 whole entry, the tested form may be a part): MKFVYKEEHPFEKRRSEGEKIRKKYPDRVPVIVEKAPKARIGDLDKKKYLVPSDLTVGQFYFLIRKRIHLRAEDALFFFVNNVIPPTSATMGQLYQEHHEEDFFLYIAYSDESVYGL
- test_method_notes: median log2 fold change of GCK-ALFA target abundance (FLAG IP / Myc IP barcode read proportion) (log2 ratio); each designed protein is fused to an ALFA-tag nanobody in HEK293 cells to bring the named protein to FLAG-tagged glucokinase (GCK); Myc marks an untargeted standard; higher = target protein stabilised (more abundant)
- condition_info: target protein: 3xFLAG-MCP-GCK-ALFA reporter; HEK293 landing pad (RPLP)
In all, about 4,500 sequences were measured (“median log2 fold change of GCK-ALFA target abundance (FLAG IP / Myc IP barcode read proportion)”: median about 0.078, lowest 2% from about -0.6 on). The entries come from a sample that favours the lowest values as a whole.
The following ranges of median log2 fold change define the classes used here: band 1 (below -0.6), band 2 (-0.6 to below 0.01), band 3 (0.01 or more)

The examples below pair each entry with its known result.
# binder, answer_label
data = [
    ("GBRAP_52_6047 (protein) SEEEIRRLAREAYEAMLAGDEERARALLREIFATKDEEKLEVFLETMVELAREARPEEHDAVARLVELAEEVGREAGIPEEFLDDFEARVFAAMYEAEQR", "band 3"),
    ("GBRAP_26_5474 (protein) VEEEVEAALKEMEKLLKELLDPETAAAATASAFTIVEEAVEEMKKNAKDKEKLKKAAEKAVKEIAADLETLGVDADTRAKIVAKAKAELEKIVKAIEKEA", "band 3"),
    ("GBRAP_106_2558 (protein) SKKETAEKIYKEMLEEAKKEIAEHEAWLAKHRSQLTPEEIRAINQYLRDYLVAKLLRKMIEAGIITKEEAKEILEEVRKRKDLDPLEALEYAGKLVLEKI", "band 1"),
    ("GBRAP_52_5997 (protein) REERIEALARELVEATLAGDDERVRALLRRIAAELSDEEIVETVRLATRLLERDPRATLEDLANFIDLVEDVLEEEGKSDELIARVLGAIAEAIYEAELE", "band 1"),
    ("GBRAP_11_2888 (protein) KKEKLKELAELARKIAELIEKLLEEGTDNEELLKEIEKLLKELEKLTKEYADKGSQKLTEIAKELFKKALEDPENRKEYLEELLAAVRVLEGDYLLEYEE", "band 2"),
    ("GBRAP_160_4149 (protein) SEELKKLIKEIKEITEEAIKLMEGETPEEAKVIAKVALGEIVMLVESNEEVSEETEEKVGEIADEAEEYLDENPDLTVEEIKELLKKAGEEVIKIIEEEL", "band 2"),
    ("GBRAP_26_5467 (protein) MDAAFAAARDRIDAIAAKLPDPRAAAALRALADTELLELEERIEAGEDIDAAVDAARDAFLAEAREILEDAGLPEELIAKTLAEFEAVFDDLRAALKAAQ", "band 3"),
    ("GBRAP_128_3416 (protein) ADAALVAKAKELLEKMKTADAATAAALADEIAALIAAADLETAEAIAEVIEEELPKLTAEQLDILADALRAALPAASPEKAEILAGVLVDALNEAEEKEE", "band 3"),
]

Q: Hi, small favor: classify GBRAP_74_6553 (protein) SAALKKEIDAAAKAGDADKLIKLARKAVKEGDIDVAVHALGQLAKLAVKKAKAGDYDELDKLIDAIVEILEKVPDEALTDETWKAIAAAIKAAIEAEKAR by its median log2 fold change when you get a moment.
Result: band 1

Q: Could you place GBRAP_160_4228 (protein) METVEKIVEIFRETFLEALELIEGESEEERRVILDVAVGEIILEVEEIEEATDEMVEIVDERAEKLAERLLAARDASREERRALVEEEAKKLREELEKLA in its proper category? Many thanks.
Result: band 2

Q: Categorize the following entry: GBRAP_139_3755 (protein) SKTEEAIKEIVELVKDPNATLEEIEEKVKEIAKELDEESIKKVLKAAAEAAKSLSVERIEELEERFIKILKEEGRSEDVIDFLEGEFNEAAALSAYREEL
Result: band 3

// data source = the supplement of paper PMC12632987
